Where these numbers come from: BindingDB's records for doi:10.1016/j.bioorg.2017.04.005

For each of the compounds below, state its pIC50.
Tgt: Histone-lysine N-methyltransferase EHMT2 (Homo sapiens, UniProt Q96KQ7)
Sequence (Q96KQ7 whole entry): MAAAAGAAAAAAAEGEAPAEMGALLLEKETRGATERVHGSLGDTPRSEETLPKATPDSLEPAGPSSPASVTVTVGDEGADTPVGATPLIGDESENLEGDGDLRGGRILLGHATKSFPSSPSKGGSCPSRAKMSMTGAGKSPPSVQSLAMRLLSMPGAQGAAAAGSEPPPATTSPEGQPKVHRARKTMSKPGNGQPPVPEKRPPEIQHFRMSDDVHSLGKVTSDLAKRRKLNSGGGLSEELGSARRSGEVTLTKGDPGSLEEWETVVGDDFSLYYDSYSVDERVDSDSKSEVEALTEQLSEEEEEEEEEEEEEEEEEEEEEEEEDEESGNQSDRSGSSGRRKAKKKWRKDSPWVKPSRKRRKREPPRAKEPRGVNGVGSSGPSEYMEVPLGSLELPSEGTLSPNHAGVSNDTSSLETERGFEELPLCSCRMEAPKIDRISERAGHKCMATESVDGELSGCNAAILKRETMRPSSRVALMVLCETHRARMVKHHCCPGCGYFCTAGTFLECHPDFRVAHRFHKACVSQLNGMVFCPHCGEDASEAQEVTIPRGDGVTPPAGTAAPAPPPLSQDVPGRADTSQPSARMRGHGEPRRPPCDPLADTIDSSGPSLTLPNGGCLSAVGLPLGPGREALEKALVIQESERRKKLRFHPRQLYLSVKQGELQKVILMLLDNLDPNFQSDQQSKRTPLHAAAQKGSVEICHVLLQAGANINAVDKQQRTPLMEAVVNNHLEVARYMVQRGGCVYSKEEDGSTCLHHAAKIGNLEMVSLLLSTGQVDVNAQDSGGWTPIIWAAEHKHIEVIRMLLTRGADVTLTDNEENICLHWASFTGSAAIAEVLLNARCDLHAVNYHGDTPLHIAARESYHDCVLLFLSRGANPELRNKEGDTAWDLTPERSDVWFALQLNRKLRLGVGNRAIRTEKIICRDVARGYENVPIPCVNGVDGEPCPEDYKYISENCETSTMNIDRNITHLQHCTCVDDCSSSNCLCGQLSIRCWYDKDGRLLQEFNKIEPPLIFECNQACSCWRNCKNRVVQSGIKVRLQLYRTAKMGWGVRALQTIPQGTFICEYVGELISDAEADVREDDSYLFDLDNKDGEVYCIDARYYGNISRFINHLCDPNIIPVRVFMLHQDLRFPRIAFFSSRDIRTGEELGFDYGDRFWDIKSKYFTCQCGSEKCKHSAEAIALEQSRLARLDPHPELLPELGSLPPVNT
Experiment summary: Enzymatic Assay
Settings: pH 8.5; 25 °C
Where a SMILES comes first, the peptide text is derived from it. [ ]: non-standard residue; d: D form. pY = N[C@@H](Cc1ccc(OP(=O)(O)O)cc1)C(=O)O
Answers are plain numbers, as −log10 of the molar value.

O=C(Nc1ccc2nc(-c3ccccc3)oc2c1)c1cccc(Br)c1: 4.82

Batch: pIC50 for all items listed.
1. CC(C)C[C@H](NC(=O)[C@H](CC(N)=O)NC(=O)[C@@H](N)CC(=O)O)C(=O)N[C@@H](Cc1ccc(O)cc1)C(=O)N[C@@H](Cc1ccc(OP(=O)(O)O)cc1)C(=O)N[C@@H](Cc1c[nH]c2ccccc12)C(=O)N[C@@H](CC(=O)O)C(=O)N[C@@H](CCC(N)=O)C(=O)N[C@@H](CC(=O)O)C(=O)N1CCC[C@H]1C(=O)N1CCC[C@H]1C(=O)O [ErbB2-pep] (H-DNLY[pY]WDQDPP-OH)
2. CC(C)[C@H](NC(=O)[C@@H](N)CCC(=O)O)C(=O)N[C@@H](CO)C(=O)N[C@@H](Cc1ccccc1)C(=O)N[C@@H](Cc1ccc(OP(=O)(O)O)cc1)C(=O)N[C@@H](Cc1ccc(O)cc1)C(=O)N[C@@H](CO)C(=O)N[C@@H](CCC(=O)O)C(=O)N[C@@H](CCC(=O)O)C(=O)N[C@@H](CC(N)=O)C(=O)N[C@@H](CCCCN)C(=O)O [IGF1R-pep] (H-EVSF[pY]YSEENK-OH)
3. CC(C)(C)c1ccc(S(=O)(=O)Nc2ccc3nc(-c4ccccc4)oc3c2)cc1
4. COC(=O)c1ccc2c(c1)nc(NC(=O)c1ccccc1)n2CCCc1ccccc1 [Brd4470]
5. CC(C)[C@H](NC(=O)[C@H](CO)NC(=O)[C@H](CO)NC(=O)[C@@H]1CCCN1)C(=O)N[C@@H](Cc1ccc(OP(=O)(O)O)cc1)C(=O)N[C@H](C(=O)N1CCC[C@H]1C(=O)N[C@@H](CC(=O)O)C(=O)N[C@@H](CCC(=O)O)C(=O)N[C@@H](Cc1c[nH]c2ccccc12)C(=O)N[C@@H](CCC(=O)O)C(=O)O)C(C)C [IR-pep] (H-PSSV[pY]VPDEWE-OH)
6. O=S(=O)(Nc1ccc2c(c1)nc(-c1ccccc1)n2CCCc1ccccc1)c1ccc(C(F)(F)F)cc1

4.82
4.72
4.44
5.21
4.58
4.79

Look at each compound and report its pIC50.
1. O=C(Nc1ccc2c(c1)nc(-c1ccccc1)n2CCCc1ccccc1)c1ccccc1F
2. COc1ccccc1S(=O)(=O)Nc1ccc2c(c1)nc(-c1ccccc1)n2CCCc1ccccc1

1. 5.02
2. 5.58

Kindly give each listed record's pIC50.
1. O=S(=O)(Nc1ccc2c(c1)nc(-c1ccccc1)n2CCCc1ccccc1)c1ccccc1Br
2. O=[N+]([O-])c1cccc(S(=O)(=O)Nc2ccc3c(c2)nc(-c2ccccc2)n3CCCc2ccccc2)c1

1: 4.68; 2: 4.45
